assaySummary: solubility in water
Assay type: physicochemical
Counter-ions that a name gives are not always drawn.
measuredEndpoint: solubility
// unit must come after the numeric part

Report solubility, nothing else, for this compound: COc1cc(/C=C/C(=O)N2CCC=CC2=O)cc(OC)c1OCCN1CCOCC1 [tartrate salt of compound one]
100 mg/mL
